src = patent USRE49735E1

- systemTested: human mGluR5A (Homo sapiens)
- Sequence (P41594 21-1180 isoform P41594-2): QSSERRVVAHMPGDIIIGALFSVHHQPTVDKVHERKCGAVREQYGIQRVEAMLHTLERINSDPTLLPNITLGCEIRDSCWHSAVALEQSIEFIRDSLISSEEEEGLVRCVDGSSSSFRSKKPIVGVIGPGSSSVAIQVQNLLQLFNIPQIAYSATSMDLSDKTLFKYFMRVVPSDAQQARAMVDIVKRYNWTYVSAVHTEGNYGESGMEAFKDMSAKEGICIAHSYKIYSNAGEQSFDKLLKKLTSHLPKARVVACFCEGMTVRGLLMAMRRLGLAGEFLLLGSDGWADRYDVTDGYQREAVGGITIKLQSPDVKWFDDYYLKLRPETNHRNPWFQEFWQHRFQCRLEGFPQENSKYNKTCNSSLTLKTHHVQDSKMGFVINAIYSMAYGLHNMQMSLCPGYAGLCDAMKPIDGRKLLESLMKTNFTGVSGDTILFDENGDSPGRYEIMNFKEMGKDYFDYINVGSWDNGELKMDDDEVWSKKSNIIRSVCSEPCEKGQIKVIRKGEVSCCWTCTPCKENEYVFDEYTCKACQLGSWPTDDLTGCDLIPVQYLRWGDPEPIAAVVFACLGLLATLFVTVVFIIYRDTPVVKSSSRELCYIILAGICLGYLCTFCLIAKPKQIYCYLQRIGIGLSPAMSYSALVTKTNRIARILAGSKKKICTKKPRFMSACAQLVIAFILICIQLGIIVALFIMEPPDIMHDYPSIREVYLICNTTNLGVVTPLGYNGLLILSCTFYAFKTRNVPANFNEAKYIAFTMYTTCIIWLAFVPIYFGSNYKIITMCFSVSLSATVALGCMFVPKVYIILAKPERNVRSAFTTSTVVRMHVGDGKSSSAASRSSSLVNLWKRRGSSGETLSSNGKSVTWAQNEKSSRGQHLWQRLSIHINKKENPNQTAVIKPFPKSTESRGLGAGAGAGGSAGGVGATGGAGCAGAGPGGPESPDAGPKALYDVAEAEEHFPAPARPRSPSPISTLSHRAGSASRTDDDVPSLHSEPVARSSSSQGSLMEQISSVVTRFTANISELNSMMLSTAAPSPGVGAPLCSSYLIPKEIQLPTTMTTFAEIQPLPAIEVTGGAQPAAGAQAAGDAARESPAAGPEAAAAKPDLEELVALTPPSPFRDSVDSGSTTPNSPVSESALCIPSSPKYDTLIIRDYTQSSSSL
- assay: mGluR5 FLIPR Assay
- measurementContext: positive modulator activity; HEK293 (ZF) cells with human mGluR5A and rat GLAST; Ca++ response to ~EC10 glutamate
quantityKind: EC50

// known answers, use as guide
{"columns": ["compound", "systemTested", "quantityKind", "resultValue"],
 "data": [
  ["O=C1N[C@@H](c2cncc(C#Cc3ccccc3)c2)[C@@H](c2cccc(Cl)c2Cl)O1 (single isomer, unassigned) [Example 332]", "human mGluR5A (Homo sapiens)", "EC50", "> 1000 nM"],
  ["O=C1N[C@H](c2cncc(C#Cc3cccnc3)c2)[C@@H](c2ccc(F)c(F)c2)O1 [Example 173]", "human mGluR5A (Homo sapiens)", "EC50", "< 100 nM"]
]}

State the recorded EC50 for every item in the following list.
1. O=C1N[C@@H](c2cccc(C#Cc3ccccc3)n2)[C@H](c2c(F)cc(F)cc2F)O1 (single isomer, unassigned) [Example 314]
2. C[C@]1(c2cncc(C#Cc3ccccc3)c2)NC(=O)O[C@H]1c1cc(F)ccc1F (racemic) [Example 405]

1. > 1000 nM
2. < 100 nM

State the recorded EC50 for every item in the following list.
1. Cc1cccc(C#Cc2cncc([C@H]3NC(=O)O[C@@H]3c3cccc(F)c3)c2)c1 [Example 401]
2. COc1cccc([C@H]2OC(=O)N[C@@H]2c2cccc(C#Cc3cncc(C)c3)c2)c1 [Example 86]
3. O=C1N[C@H](c2cncc(C#Cc3cccc(Cl)c3)c2)[C@@H](c2c(F)cccc2F)O1 [Example 281]
4. C[C@]1(c2cccc(C#Cc3ccccc3)n2)NC(=O)O[C@H]1c1ccccc1F (single isomer, unassigned) [Example 377]
5. O=C1N[C@@H](c2cccc(C#Cc3ccccc3)c2)[C@H](c2ccccc2)O1 (single isomer, unassigned) [Example 96]
6. O=C1N[C@H](c2ccnc(C#Cc3cccnc3)c2)[C@@H](c2cccc(F)c2)O1 [Example 258]
7. O=C1N[C@H](c2ccc(C#Cc3ccccc3)nc2)[C@@H](c2cccc(F)c2)O1 [Example 408]
8. O=C1N[C@@H](c2cncc(C#Cc3ccccc3)c2)[C@H](c2cccnc2)O1 [Example 199]

< 100 nM
< 100 nM
> 1000 nM
> 1000 nM
100 to 1000 nM
< 100 nM
100 to 1000 nM
> 1000 nM

State the recorded EC50 for every item in the following list.
1. O=C1N[C@H](c2cccc(C#Cc3ccccc3)c2)[C@@H](c2nc(-c3ccccn3)no2)O1 [Example 162]
2. O=C1N[C@H](c2cncc(C#Cc3ccccc3)c2)[C@@H](c2cccnc2)O1 [Example 198]
3. O=C1N[C@H](c2cncc(C#Cc3ccccc3F)c2)[C@@H](c2cc(F)ccc2F)O1 [Example 282]

1. > 1000 nM
2. < 100 nM
3. < 100 nM
